Below is a list of entries, each paired with its recorded minimal effective concentration value.
# System: Pseudomonas aeruginosa
# run description: Potentiation of levofloxacin-induced antibacterial activity against Pseudomonas aeruginosa assessed as concentration required to decrease levofloxacin MIC by 8 fold in presence of levofloxacin
# Format: functional
# condition label: read-out: MEC
Peptide text beside a SMILES is read from it. * marks the point of attachment. βNA = c1ccc2cc(N*)ccc2c1
Answer with the value and then the unit.

Consider the worked cases shown below.
NCCC[C@@H](N)C(=O)N[C@H](CCc1ccccc1)C(=O)Nc1cnc2ccccc2c1	10 µg/mL
NCCC[C@H](NC(=O)[C@@H](N)Cc1ccccc1)C(=O)Nc1ccc2ccccc2c1	5 µg/mL
NCCC[C@@H](N)C(=O)N[C@H](CCc1ccccc1)CSc1ccc(Cl)cc1	1.25 µg/mL
N=C(N)NCCC[C@H](NC(=O)[C@@H](N)Cc1ccccc1)C(=O)Nc1ccc2ccccc2c1 [PABETAN] (H-Phe-Arg-βNA)	10 µg/mL
NCCC[C@@H](N)C(=O)N[C@H](CCc1ccccc1)C(=O)Nc1ncc(C(=O)Nc2cnc3ccccc3c2)o1	5 µg/mL

Entry under review: `NCCC[C@@H](N)C(=O)N[C@H](CCc1ccccc1)COc1ccc(Cl)cc1` . Reported minimal effective concentration?
5 µg/mL

Cited source: ChEMBL document CHEMBL4364243
